assay_text: Volume of distribution in mouse at 3 mg/kg, iv
Type: ADME, organism-based
Set-up: dose 3 mg/kg, route intravenous
protocol_conditions: in vivo
measurement_label: Vd (L/kg)

chemical_string=COc1ccc(-c2ccc(NC(=O)Nc3cccc(Br)c3)cc2)c2c(N)noc12 numeric_readout=3.1
chemical_string=COc1ccc(-c2ccc(NC(=O)Nc3cc(C)ccc3F)cc2)c2c(N)noc12 numeric_readout=0.94

A. Cc1ccc(F)c(NC(=O)Nc2ccc(-c3cccc4[nH]nc(N)c34)cc2)c1
B. Nc1noc2cccc(-c3ccc(NC(=O)Nc4ccc(F)c(C(F)(F)F)c4)cc3)c12
Query: Field: lower Vd | Options: A / B To answer, give the label that identifies your chosen option.
Result: B

* * *

tested_target: Platelet-derived growth factor receptor beta (Homo sapiens, UniProt P09619)
Sequence (P09619 whole entry): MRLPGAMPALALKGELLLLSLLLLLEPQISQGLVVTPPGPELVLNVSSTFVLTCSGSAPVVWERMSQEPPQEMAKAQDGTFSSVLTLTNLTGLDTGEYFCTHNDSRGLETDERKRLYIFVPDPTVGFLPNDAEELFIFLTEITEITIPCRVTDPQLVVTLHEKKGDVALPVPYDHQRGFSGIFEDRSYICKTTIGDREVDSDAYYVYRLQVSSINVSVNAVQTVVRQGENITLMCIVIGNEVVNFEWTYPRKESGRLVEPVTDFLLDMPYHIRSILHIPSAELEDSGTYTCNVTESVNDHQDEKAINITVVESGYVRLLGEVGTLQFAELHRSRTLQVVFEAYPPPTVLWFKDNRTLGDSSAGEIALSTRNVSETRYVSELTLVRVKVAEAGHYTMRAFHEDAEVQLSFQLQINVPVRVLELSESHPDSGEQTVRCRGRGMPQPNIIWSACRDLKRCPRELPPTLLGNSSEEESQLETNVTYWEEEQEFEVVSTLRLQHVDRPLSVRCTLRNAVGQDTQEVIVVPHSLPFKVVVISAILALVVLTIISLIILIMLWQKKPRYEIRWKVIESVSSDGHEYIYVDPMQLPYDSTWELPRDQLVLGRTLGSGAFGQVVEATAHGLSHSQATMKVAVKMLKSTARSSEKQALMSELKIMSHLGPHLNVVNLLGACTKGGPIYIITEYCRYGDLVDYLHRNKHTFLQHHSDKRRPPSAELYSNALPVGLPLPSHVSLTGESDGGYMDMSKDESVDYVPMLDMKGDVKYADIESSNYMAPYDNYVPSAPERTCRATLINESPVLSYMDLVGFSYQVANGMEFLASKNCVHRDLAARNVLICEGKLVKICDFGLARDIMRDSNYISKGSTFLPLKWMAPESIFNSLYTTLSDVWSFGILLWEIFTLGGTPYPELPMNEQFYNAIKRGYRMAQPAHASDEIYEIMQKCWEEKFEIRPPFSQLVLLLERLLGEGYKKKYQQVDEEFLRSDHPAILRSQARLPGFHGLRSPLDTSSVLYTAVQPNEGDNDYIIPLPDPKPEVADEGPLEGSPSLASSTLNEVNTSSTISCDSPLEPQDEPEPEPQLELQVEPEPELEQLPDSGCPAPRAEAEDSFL
measurement_label: pIC50
The value called pIC50 is obtained by taking minus log10 of the concentration in mol/L.

Query: Which pIC50 is listed for COc1ccc(-c2ccc(NC(=O)Nc3cc(C)ccc3F)cc2)c2c(N)noc12 ?
Result: 7.02

* * *

tested_target: UniProt P07333
Sequence (P07333 whole entry): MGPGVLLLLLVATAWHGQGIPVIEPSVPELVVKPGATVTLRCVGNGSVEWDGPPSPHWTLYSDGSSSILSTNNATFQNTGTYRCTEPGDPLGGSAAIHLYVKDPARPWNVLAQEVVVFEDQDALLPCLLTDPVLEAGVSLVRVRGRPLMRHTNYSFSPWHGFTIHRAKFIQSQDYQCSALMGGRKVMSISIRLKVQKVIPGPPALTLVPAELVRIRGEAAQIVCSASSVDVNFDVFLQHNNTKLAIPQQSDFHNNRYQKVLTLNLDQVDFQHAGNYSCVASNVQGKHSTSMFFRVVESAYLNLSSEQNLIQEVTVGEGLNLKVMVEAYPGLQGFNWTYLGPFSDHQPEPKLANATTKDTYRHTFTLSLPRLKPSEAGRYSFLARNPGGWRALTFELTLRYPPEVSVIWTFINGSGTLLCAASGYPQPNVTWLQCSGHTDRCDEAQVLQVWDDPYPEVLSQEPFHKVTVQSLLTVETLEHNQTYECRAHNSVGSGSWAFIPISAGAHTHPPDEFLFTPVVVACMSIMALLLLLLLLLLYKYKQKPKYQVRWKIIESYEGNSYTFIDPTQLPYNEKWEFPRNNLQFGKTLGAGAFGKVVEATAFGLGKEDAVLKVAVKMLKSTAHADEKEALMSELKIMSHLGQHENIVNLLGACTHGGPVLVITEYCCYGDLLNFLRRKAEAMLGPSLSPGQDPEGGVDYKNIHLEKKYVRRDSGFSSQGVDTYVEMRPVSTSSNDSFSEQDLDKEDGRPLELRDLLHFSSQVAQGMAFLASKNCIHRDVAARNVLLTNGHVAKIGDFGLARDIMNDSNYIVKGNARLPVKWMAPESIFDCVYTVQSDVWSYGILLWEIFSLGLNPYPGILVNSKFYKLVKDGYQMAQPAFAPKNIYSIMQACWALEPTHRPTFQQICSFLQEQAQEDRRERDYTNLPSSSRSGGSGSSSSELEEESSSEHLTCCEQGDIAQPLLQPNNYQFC
measurement_label: IC50 (nM)

chemical_string=COc1ccc(-c2ccc(NC(=O)Nc3cc(C)ccc3F)cc2)c2c(N)noc12 tested_target="UniProt P07333" numeric_readout=27
chemical_string=COc1ccc(-c2ccc(NC(=O)Nc3cccc(Cl)c3)cc2)c2c(N)noc12 tested_target="UniProt P07333" numeric_readout=40
chemical_string=COc1ccc(-c2ccc(NC(=O)Nc3cccc(C(F)(F)F)c3)cc2)c2c(N)noc12 tested_target="UniProt P07333" numeric_readout=30

* * *

pIC50: −log10 of the molar value.
Reported pIC50, Mast/stem cell growth factor receptor Kit (Homo sapiens).
measurement_label: pIC50

Sample records with pIC50:
chemical_string=Nc1nsc2cccc(-c3ccc(NC(=O)Nc4cccc(C(F)(F)F)c4)cc3)c12 measurement_label=pIC50 numeric_readout=5.58
chemical_string=Nc1noc2cccc(-c3ccc(NC(=O)Nc4cccc(F)c4)cc3)c12 measurement_label=pIC50 numeric_readout=7.96
chemical_string=Cc1ccc(NC(=O)Nc2ccc(-c3cccc4onc(N)c34)cc2)cc1F measurement_label=pIC50 numeric_readout=7.92

1. COc1ccc(-c2ccc(NC(=O)Nc3cccc(Cl)c3)cc2)c2c(N)noc12
2. Nc1noc2cccc(-c3ccc(NC(=O)Nc4cc(C(F)(F)F)ccc4F)cc3)c12
3. Nc1noc2cccc(-c3ccc(NC(=O)Nc4ccccc4C(F)(F)F)cc3)c12
4. Nc1noc2cccc(-c3ccc(NC(=O)Nc4cccc(Cl)c4)cc3)c12
Query: rank_up(items): orders items by reported pIC50 in ascending numerical order. Reply with the item labels sorted in the order that was asked for.
Result: 3, 2, 1, 4
(3: 4.63, 2: 6.47, 1: 7.14, 4: 8.00)

I. COc1cccc(NC(=O)Nc2ccc(-c3cccc4onc(N)c34)cc2)c1
II. COc1ccc(-c2ccc(NC(=O)Nc3cccc(C(F)(F)F)c3)cc2)c2c(N)noc12
III. Nc1noc2cccc(-c3ccc(NC(=O)Nc4ccc(C(F)(F)F)cc4)cc3)c12
Query: rank_up(items): orders items by reported pIC50 in ascending numerical order. Reply with the item labels sorted in the order that was asked for.
Result: II, III, I

* * *

assay_text: Clearance in mouse at 3 mg/kg, iv
Format: ADME, organism-based
Set-up: dose 3 mg/kg, route intravenous
protocol_conditions: in vivo
measurement_label: clearance (mL/min/kg)

chemical_string=COc1ccc(-c2ccc(NC(=O)Nc3cccc(Br)c3)cc2)c2c(N)noc12 unit_descriptor=mL/min/kg numeric_readout=18.3
chemical_string=Nc1noc2cccc(-c3ccc(NC(=O)Nc4ccc(F)c(C(F)(F)F)c4)cc3)c12 unit_descriptor=mL/min/kg numeric_readout=13.2
chemical_string=Cc1ccc(F)c(NC(=O)Nc2ccc(-c3cccc4[nH]nc(N)c34)cc2)c1 unit_descriptor=mL/min/kg numeric_readout=18.3
chemical_string=COc1ccc(-c2ccc(NC(=O)Nc3cc(C)ccc3F)cc2)c2c(N)noc12 unit_descriptor=mL/min/kg numeric_readout=16.7
